- System: B. cereus
- MEASUREMENT NOTES: Broth microdilution MIC/MBC, B. cereus
- Type: cell-based
- CONDITION PARAMETERS: Bacillus cereus, B. cereus VD115 NR-22148; read-out: MBC
READOUT KIND: MBC (µM)
Give bare numbers, in µM.

[[record]]
molecule = "O=C(O)[C@H](Cc1ccccc1)N1C(=O)/C(=C/c2cccc(Cc3ccc(Cl)c(Cl)c3)c2)SC1=S"
observed_measurement = 4


Could you report MBC for every entry in the following list?
1. CC(=O)NC[C@H]1CN(c2ccc(N3CCOCC3)c(F)c2)C(=O)O1 [Linezolid, linezolid, reference compound]
2. O=C(O)[C@H](Cc1ccccc1)N1C(=O)/C(=C/c2cccc(OC/C=C/c3ccc(Cl)c(Cl)c3)c2)SC1=S
3. O=C(O)[C@@H](Cc1ccccc1)N1C(=O)/C(=C/c2cccc(Cc3ccccc3)c2)SC1=S
4. O=C(O)[C@@H](Cc1ccccc1)N1C(=O)/C(=C/c2cccc(Oc3ccc(F)cc3)c2)SC1=S
5. O=C(O)[C@H](Cc1ccccc1)N1C(=O)/C(=C/c2cccc(-c3ccc(Cl)c(Cl)c3)c2)SC1=S
6. O=C(O)[C@H](Cc1ccccc1)N1C(=O)/C(=C/c2cccc(Oc3ccc(Cl)c(Cl)c3)c2)SC1=S

stdout:
1: 1; 2: 4; 3: 4; 4: 8; 5: 4; 6: 4

stdin: Which MBC is reported with B. cereus for this entry: `O=C(O)[C@H](Cc1ccccc1)N1C(=O)/C(=C/c2cccc(-c3ccccc3)c2)SC1=S` ?
stdout: 4
